The measurements presented in this section are drawn from the supplement of paper PMC6755084.

B1: minF1; the commonest letter at each place (parent)
chain: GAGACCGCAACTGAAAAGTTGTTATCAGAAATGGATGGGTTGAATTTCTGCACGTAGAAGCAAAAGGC

- Variants of: B1
- Assay overview: fraction ligated after 30 min (ligated reads / total reads); higher = more ligase activity
- Run parameters: with F1*subA RNA substrate (template-directed ligation), 42 °C
Assign fulfilled to entries whose fraction ligated meets or exceeds 0.005; assign not fulfilled to the rest.

// inclusive: fraction ligated at least 0.005? input: A27C G33T fulfilled

// inclusive: fraction ligated at least 0.005? input: A30G A44T fulfilled

// inclusive: fraction ligated at least 0.005? input: T23A G42C not fulfilled

// inclusive: fraction ligated at least 0.005? input: C26G fulfilled

// inclusive: fraction ligated at least 0.005? input: G28C T32C fulfilled

// inclusive: fraction ligated at least 0.005? input: A30T G33A fulfilled

// inclusive: fraction ligated at least 0.005? input: A27T G34T not fulfilled

// inclusive: fraction ligated at least 0.005? input: A35T T36C not fulfilled

// inclusive: fraction ligated at least 0.005? input: T32A G42A not fulfilled

// inclusive: fraction ligated at least 0.005? input: A31T G42C fulfilled

// inclusive: fraction ligated at least 0.005? input: A24T T32G not fulfilled

// inclusive: fraction ligated at least 0.005? input: A30G T36A fulfilled

// inclusive: fraction ligated at least 0.005? input: T25C G34T not fulfilled

// inclusive: fraction ligated at least 0.005? input: G37A A44G not fulfilled

// inclusive: fraction ligated at least 0.005? input: T23G G28A fulfilled

// inclusive: fraction ligated at least 0.005? input: T25A A35T fulfilled

// inclusive: fraction ligated at least 0.005? input: G42T A44C fulfilled

// inclusive: fraction ligated at least 0.005? input: A31C G33A fulfilled

// inclusive: fraction ligated at least 0.005? input: T32C G37A not fulfilled

// inclusive: fraction ligated at least 0.005? input: T36G G42A not fulfilled
